The reported measurements were obtained from patent US10590153B2.

Measured Visual classification at the end of the tempering step (points system) by item
procedure summary: Drying behaviour of crystallisates in dependence on residual moisture and product purity (tempering in sealed vials, visual points classification)
Format: physicochemical
Set-up: key: 5 points=sample unchanged; 4 points=sample compacted/started to dissolve; 3 points=sample visibly started to dissolve; 2 points=sample cloudy highly viscous solution; 1 point=sample dissolved to clear solution
run parameters: Temperature 70 °C, test duration 5 h, sealed vial, shaken
measured endpoint: Visual classification at the end of the tempering step (points system)

molecule: O=P(O)(O)CN(CCN(CP(=O)(O)O)CP(=O)(O)O)CCN(CP(=O)(O)O)CP(=O)(O)O [unwashed quality 47 [% by mass] residual moisture]
obs value: 1
//
molecule: O=P(O)(O)CN(CCN(CP(=O)(O)O)CP(=O)(O)O)CCN(CP(=O)(O)O)CP(=O)(O)O [unwashed quality 24 [% by mass] residual moisture]
obs value: 1
//
molecule: O=P(O)(O)CN(CCN(CP(=O)(O)O)CP(=O)(O)O)CCN(CP(=O)(O)O)CP(=O)(O)O [unwashed quality 19 [% by mass] residual moisture]
obs value: 2

----------
procedure summary: Drying behaviour of crystallisates in dependence on residual moisture and product purity (tempering in sealed vials, visual points classification)
Assay type: physicochemical
Set-up: key: 5 points=sample unchanged; 4 points=sample compacted/started to dissolve; 3 points=sample visibly started to dissolve; 2 points=sample cloudy highly viscous solution; 1 point=sample dissolved to clear solution
run parameters: Temperature 35 °C, test duration 24 h, sealed vial, shaken
Recorded Visual classification at the end of the tempering step (points system) for the following compounds
measured endpoint: Visual classification at the end of the tempering step (points system)

compound: O=P(O)(O)CN(CCN(CP(=O)(O)O)CP(=O)(O)O)CCN(CP(=O)(O)O)CP(=O)(O)O [unwashed quality 19 [% by mass] residual moisture]
obs value: 5
--
compound: O=P(O)(O)CN(CCN(CP(=O)(O)O)CP(=O)(O)O)CCN(CP(=O)(O)O)CP(=O)(O)O [unwashed quality 36 [% by mass] residual moisture]
obs value: 5
--
compound: O=P(O)(O)CN(CCN(CP(=O)(O)O)CP(=O)(O)O)CCN(CP(=O)(O)O)CP(=O)(O)O [unwashed quality 51 [% by mass] residual moisture]
obs value: 5
